- System under test: CXCR3 (Homo sapiens, UniProt P49682)
- Sequence (P49682 1-368): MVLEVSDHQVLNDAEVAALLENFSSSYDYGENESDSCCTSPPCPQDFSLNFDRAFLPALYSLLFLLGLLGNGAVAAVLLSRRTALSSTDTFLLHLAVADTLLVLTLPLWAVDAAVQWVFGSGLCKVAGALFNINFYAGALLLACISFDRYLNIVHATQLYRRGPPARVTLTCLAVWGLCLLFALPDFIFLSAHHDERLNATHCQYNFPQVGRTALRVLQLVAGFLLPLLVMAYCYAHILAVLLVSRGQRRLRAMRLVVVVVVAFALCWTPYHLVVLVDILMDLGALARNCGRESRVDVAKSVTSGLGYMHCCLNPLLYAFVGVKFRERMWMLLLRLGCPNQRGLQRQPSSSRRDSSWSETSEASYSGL
- Test protocol: [125I]hCXCL11 competition binding (SPA, Ba/F3 membranes)
- Parameters: expressed in transfected cells; host or cells: mouse pro-B Ba/F3 cells (vector pME18Sneo), membrane preparation
- Condition summary: [125I-hI-TAC] 250 pM; 3 hr reaction; read-out: IC50
Readout label: IC50 (nM)
One number for each entry, in nM.

Sample CC[C@H]1CN(c2nc(N)c(C(N)=O)nc2Cl)CCN1C1CCN(Cc2ccc(Cl)cc2)CC1 ; IC50 observed: 2.2
